# reported EC50; entries follow
- protocol: Cytotoxicity against human MRC5 SV2 cells after 48 hrs by resazurin based fluorescence assay
- Assay type: cell-based
- conditionsUsed: MRC-5 SV2, 48 h
quantityKind: EC50

chemicalstructure=Cn1ccc(-c2cccc3[nH]c(=O)nc(-c4ccccc4)c23)n1 quantitykind=EC50 value="> 50 µM"
chemicalstructure=O=c1nc(-c2ccccc2)c2cc(N3CCNCC3)ccc2[nH]1 quantitykind=EC50 value="> 25 µM"
chemicalstructure=O=c1nc(-c2ccccc2)c2ccc(-c3cccnc3)cc2[nH]1 quantitykind=EC50 value="> 50 µM"
chemicalstructure=O=c1nc(-c2ccccc2)c2cc(-c3cn[nH]c3)ccc2[nH]1 quantitykind=EC50 value="22 µM"
chemicalstructure=Cc1ccccc1-c1nc(=O)[nH]c2ccc(-c3cc[nH]n3)cc12 quantitykind=EC50 value="> 50 µM"
chemicalstructure=O=c1nc(-c2ccccc2)c2cc(-c3ccc(N4CCOCC4)cc3)ccc2[nH]1 quantitykind=EC50 value="23.8 µM"

Taken from ChEMBL document CHEMBL4052780.
